Test system: HepG2
Run Description: Cytotoxicity against human HepG2 cells assessed as cell growth inhibition after 3 days by MTT assay
Assay type: functional, cell-based
Conditions Used: HepG2, 72 h
Reported Endpoint: pIC50
As a rule, pIC50 stands for the negative log10 of the concentration, concentration in M.

Just so you know, measured pIC50 for COc1cc([C@@H]2c3cc4c(cc3[C@@H](NC(=S)NC(=O)c3ccccc3Br)[C@H]3COC(=O)[C@H]23)OCO4)cc(OC)c1O came out at 5.29

Just so you know, measured pIC50 for COc1cc([C@@H]2c3cc4c(cc3[C@@H](NC(=S)NC(=O)c3cccc(C)c3)[C@H]3COC(=O)[C@H]23)OCO4)cc(OC)c1O came out at 5.34

Just so you know, measured pIC50 for COc1cc([C@@H]2c3cc4c(cc3[C@@H](NC(=S)NC(=O)c3cccc5ccccc35)[C@H]3COC(=O)[C@H]23)OCO4)cc(OC)c1O came out at 4.73

Just so you know, measured pIC50 for COc1cc([C@@H]2c3cc4c(cc3[C@@H](NC(=S)NC(=O)c3ccccc3)[C@H]3COC(=O)[C@H]23)OCO4)cc(OC)c1O came out at 5.21

Just so you know, measured pIC50 for COc1cc([C@@H]2c3cc4c(cc3[C@@H](NC(=S)NC(=O)c3ccc(F)cc3)[C@H]3COC(=O)[C@H]23)OCO4)cc(OC)c1O came out at 5.08

Just so you know, measured pIC50 for COc1cc([C@@H]2c3cc4c(cc3[C@@H](NC(=S)NC(=O)c3ccccc3I)[C@H]3COC(=O)[C@H]23)OCO4)cc(OC)c1O came out at 5.17

Just so you know, measured pIC50 for COc1cc([C@@H]2c3cc4c(cc3[C@@H](O[C@@H]3O[C@@H]5CO[C@@H](C)O[C@H]5[C@H](O)[C@H]3O)[C@H]3COC(=O)[C@H]23)OCO4)cc(OC)c1O [ETOPOSIDE] came out at 5.31

The measured values listed here are drawn from ChEMBL document CHEMBL1687881.
